Taken from paper PMC6980506.

- assay-overview: Single dose pharmacokinetic study in beagle dog
- Type: in vivo
- measurement-setup: male, beagle, dog, plasma, po, 2 mg/kg, male beagle dog, po 2 mg/kg, 10 hr; read-out: Plasma level, Individual animals
property: concentration at 10 h (µg/mL)
Your answer is read as µg/mL, so omit the unit and give the number.

For the compound `Cc1cc(C(=O)O)nc(N2C[C@H]3C[C@@H](c4ccccc4C(F)(F)F)C[C@H]3C2)n1` , report concentration at 10 h.
0.407

---

- assay-overview: Single dose pharmacokinetic study in beagle dog
- Type: in vivo
- measurement-setup: male, beagle, dog, plasma, iv, 0.5 mg/kg, male beagle dog, iv 0.5 mg/kg, 0.5 hr; read-out: Plasma level, Individual animals
property: concentration at 0.5 h (ng/mL)
Your answer is read as ng/mL, so omit the unit and give the number.

For the molecule Cc1cc(C(=O)O)nc(N2C[C@H]3C[C@@H](c4ccccc4C(F)(F)F)C[C@H]3C2)n1 [BPN-14136] , report concentration at 0.5 h.
1690

---

- assay-overview: Single dose pharmacokinetic study in beagle dog
- Type: in vivo
- measurement-setup: male, beagle, plasma, po; Dog, 2.0 mg kg^−1 p.o., mean ± SD, n=3; read-out: Cmax
property: Cmax (ng/mL)
Your answer is read as ng/mL, so omit the unit and give the number.

For the compound `Cc1cc(C(=O)O)nc(N2C[C@H]3C[C@@H](c4ccccc4C(F)(F)F)C[C@H]3C2)n1` , report Cmax.
7500

---

- assay-overview: Single dose pharmacokinetic study in beagle dog
- Assay type: in vivo
- measurement-setup: male, beagle, plasma, iv; Dog, 0.5 mg kg^−1 i.v., mean ± SD, n=3; read-out: Vss, volume of distribution at steady state
property: Vd (L/kg)
Your answer is read as L/kg, so omit the unit and give the number.

For the compound `Cc1cc(C(=O)O)nc(N2C[C@H]3C[C@@H](c4ccccc4C(F)(F)F)C[C@H]3C2)n1` , report Vd.
0.622

---

- assay-overview: Single dose pharmacokinetic study in beagle dog
- Type: in vivo
- measurement-setup: male, beagle, dog, plasma, po, 2 mg/kg, male beagle dog, po 2 mg/kg, 48 hr; read-out: Plasma level, Mean
property: concentration at 48 h (ng/mL)
Your answer is read as ng/mL, so omit the unit and give the number.

For the compound Cc1cc(C(=O)O)nc(N2C[C@H]3C[C@@H](c4ccccc4C(F)(F)F)C[C@H]3C2)n1 [BPN-14136] , report concentration at 48 h.
126

---

- assay-overview: Single dose pharmacokinetic study in cynomolgus monkey
- Assay type: in vivo
- measurement-setup: male, cynomolgus monkey, plasma, iv, 1 mg/kg, non-human primate, iv 1.0 mg/kg, 0.5 hr; read-out: Plasma level, Individual animals
property: concentration at 0.5 hr
Output should be the measured figure followed by the unit it is expressed in.

For the molecule Cc1cc(C(=O)O)nc(N2C[C@H]3C[C@@H](c4ccccc4C(F)(F)F)C[C@H]3C2)n1 [BPN-14136] , report concentration at 0.5 hr.
9300 ng/mL

---

- assay-overview: Single dose pharmacokinetic study in beagle dog
- Type: in vivo
- measurement-setup: male, beagle, dog, plasma, iv, 0.5 mg/kg, male beagle dog, iv 0.5 mg/kg, 1 hr; read-out: Plasma level, Mean
property: concentration at 1 h (ng/mL)
Your answer is read as ng/mL, so omit the unit and give the number.

For the compound `Cc1cc(C(=O)O)nc(N2C[C@H]3C[C@@H](c4ccccc4C(F)(F)F)C[C@H]3C2)n1` , report concentration at 1 h.
1380
